Data origin: PubChem BioAssay AID623876

# target desc: Metabotropic glutamate receptor 4 (Homo sapiens)
# method description: potentiation of human mGlu4 glutamate response – CHO Gqi5 cells, calcium mobilization, SAR follow-up (AID 623876)
# measurement conditions: CHO hmGlu4/Gqi5 calcium mobilization, PAM at EC20 glutamate
pEC50: −log10 of the molar value.
Measured pEC50, listed per entry.

The recorded pEC50 for entry COc1cc(NC(=O)c2ccccc2F)ccc1Cl equals < 5.00

Value of pEC50 reported for the compound O=C(Nc1cccc(Cl)c1)c1ccccn1 is 5.92

---

# target desc: Metabotropic glutamate receptor 4 (Homo sapiens)
# method description: potentiation of human mGlu4 glutamate response – CHO Gqi5 cells, calcium mobilization, SAR follow-up (AID 623876)
# measurement conditions: CHO hmGlu4/Gqi5 calcium mobilization, PAM at EC20 glutamate
endpoint: EC50

Per the reported Metabotropic glutamate receptor 4 (Homo sapiens) data, COc1cc2nc(-c3ncc[nH]3)[nH]c2cc1Cl has EC50 of > 10 µM

Item O=C(Nc1ccc2cc[nH]c2c1)c1ccccn1 was tested on Metabotropic glutamate receptor 4 (Homo sapiens); the reported EC50 is > 10 µM

# Fc1ccc2nc(-c3ccccn3)[nH]c2c1 with Metabotropic glutamate receptor 4 (Homo sapiens): EC50 is > 10 µM

---

Reported pEC50 values follow for various compounds
# target desc: Metabotropic glutamate receptor 4 (Homo sapiens) (UniProt Q14833)
# Sequence (Q14833 whole entry, looked up): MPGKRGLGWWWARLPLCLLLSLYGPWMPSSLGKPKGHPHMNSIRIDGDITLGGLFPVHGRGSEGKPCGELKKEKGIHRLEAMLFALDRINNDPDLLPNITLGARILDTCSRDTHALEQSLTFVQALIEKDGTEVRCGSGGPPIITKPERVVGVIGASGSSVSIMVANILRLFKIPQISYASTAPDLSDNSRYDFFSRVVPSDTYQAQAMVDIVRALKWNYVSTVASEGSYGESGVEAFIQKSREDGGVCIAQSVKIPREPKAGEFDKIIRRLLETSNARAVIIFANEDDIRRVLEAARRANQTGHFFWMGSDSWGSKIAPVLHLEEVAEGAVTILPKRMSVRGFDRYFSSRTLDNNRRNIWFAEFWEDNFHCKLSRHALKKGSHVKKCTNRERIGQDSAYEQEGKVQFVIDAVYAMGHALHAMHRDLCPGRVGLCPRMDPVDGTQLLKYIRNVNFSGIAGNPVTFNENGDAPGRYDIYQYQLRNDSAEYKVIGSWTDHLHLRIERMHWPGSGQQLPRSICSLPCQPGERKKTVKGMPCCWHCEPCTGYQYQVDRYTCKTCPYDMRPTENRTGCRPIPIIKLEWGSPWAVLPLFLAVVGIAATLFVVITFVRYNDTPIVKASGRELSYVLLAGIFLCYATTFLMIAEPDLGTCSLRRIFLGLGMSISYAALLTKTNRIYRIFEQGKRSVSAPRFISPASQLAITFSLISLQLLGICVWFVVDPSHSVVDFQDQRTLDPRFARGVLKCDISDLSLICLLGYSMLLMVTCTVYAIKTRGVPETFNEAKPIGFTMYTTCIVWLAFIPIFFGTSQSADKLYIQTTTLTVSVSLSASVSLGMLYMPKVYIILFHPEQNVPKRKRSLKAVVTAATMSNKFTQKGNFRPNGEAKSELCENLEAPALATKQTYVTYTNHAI
# method description: potentiation of human mGlu4 glutamate response – CHO Gqi5 cells, calcium mobilization, SAR follow-up (AID 623876)
# measurement conditions: CHO hmGlu4/Gqi5 calcium mobilization, PAM at EC20 glutamate
pEC50: −log10 of the molar value.

# annotated cases, reported pEC50 shown
The compound listed as COc1cc(Nc2noc3cccnc23)ccc1Cl has a reported pEC50 of 5.49

Data point: COc1cc2nc(-c3ccccn3)[nH]c2cc1Cl ; pEC50 = < 5.00

The recorded pEC50 for Clc1cccc(Nc2ncnc3cccnc23)c1 is 5.14

pEC50 reported for this compound Clc1cccc(Nc2ccccn2)c1 : < 5.00

Please fill in: pEC50 reported for Clc1cccc(Nc2coc3cccnc23)c1 = < 5.00

# compound Clc1ccc2nc(-c3ccccn3)[nH]c2c1 ; its pEC50 = 5.33

Others:
Memo: O=C(Nc1ccc2c(c1)C(=O)NC2=O)c1ccccn1 , reported pEC50: 5.42

Reported pEC50 of O=C(Nc1ccc2cn[nH]c2c1)c1ccccn1 : 5.86

Measured pEC50 of O=c1[nH]c(-c2ccccn2)nc2cc(Cl)ccc12 : < 5.00

Sure, the documented pEC50 for CC(C)N(C(=O)c1ccccn1)c1cccc(Cl)c1 is < 5.00

Lab note: O=C(Nc1nc(C(F)(F)F)cs1)c1ccccn1 gave pEC50 of < 5.00

Data point: Clc1cccc(Nc2nc3ccccc3o2)c1 ; pEC50 = 6.22

Value of measured pEC50 for the entry O=C(c1cscn1)N1CCOc2ccc(Cl)cc21 : < 5.00

Lab note: measured pEC50 of Fc1cccc(Nc2noc3cccnc23)c1 was 5.92
